This collection of values is drawn from ChEMBL document CHEMBL4392838.

# System: A-375
# measurement_protocol: Antiproliferative activity against human A375 cells assessed as reduction in cell growth measured after 48 hrs by MTT assay
# Type: functional, cell-based
# test_conditions: A-375, 48 h
This section presents molecules with their documented log10 of IC50 values.
All values: base-10 log of IC50 in µM.

Record excerpt, results attached:
molecule: COc1ccc(-c2nc(=O)n(Cc3c(C)noc3C)c3sc4c(c23)CCC(C(C)(C)C)C4)cc1 (stereo not drawn)
log10 of IC50: 1.15
--
molecule: Cc1noc(C)c1Cn1c(=O)nc(-c2ccc(F)cc2)c2c3c(sc21)CC(C(C)(C)C)CC3 (stereo not drawn)
log10 of IC50: 1.15
--
molecule: Cc1sc2c(c1C)C(c1ccc(Cl)cc1)=N[C@@H](CC(=O)OC(C)(C)C)c1nnc(C)n1-2
log10 of IC50: 0.88

## Task Given the molecule Cc1noc(C)c1Cn1c(=O)nc(-c2ccccc2Cl)c2c3c(sc21)CC(C(C)(C)C)CC3 (stereo not drawn) , what is its reported log10 of IC50?
## Result 1.05

## Task Given the molecule Cc1noc(C)c1Cn1c(=O)nc(-c2ccc(Cl)c(Cl)c2)c2c3c(sc21)CC(C(C)(C)C)CC3 (stereo not drawn) , what is its reported log10 of IC50?
## Result 0.69

## Task Given the molecule COc1cc(OC)c2c(=O)[nH]c(-c3cc(C)c(OCCO)c(C)c3)nc2c1 , what is its reported log10 of IC50?
## Result 2.38

## Task Given the molecule COC(=O)c1ccc(-c2nc(=O)n(Cc3c(C)noc3C)c3sc4c(c23)CCC(C(C)(C)C)C4)cc1 (stereo not drawn) , what is its reported log10 of IC50?
## Result 0.94

## Task Given the molecule CC(C)(C)C1CCc2c(sc3c2c(-c2ccccc2)nc(=O)n3Cc2cnc(Cl)s2)C1 (stereo not drawn) , what is its reported log10 of IC50?
## Result 1.17

* * *

This section presents molecules with their documented IC50 values.
# Test system: A549
# measurement_protocol: Antiproliferative activity against human A549 cells assessed as reduction in cell growth measured after 48 hrs by MTT assay
# Type: functional, cell-based
# test_conditions: A549, 48 h
Only the number, expressed in µM, is required.

Record excerpt, results attached:
molecule: Cc1noc(C)c1Cn1c(=O)nc(-c2cccc(Cl)c2)c2c3c(sc21)CC(C(C)(C)C)CC3 (configuration not stated)
experimental_system: A549
units_of_measure: µM
val: 18.9
//
molecule: Cc1noc(C)c1Cn1c(=O)nc(-c2ccc(Cl)cc2)c2c3c(sc21)CC(C(C)(C)C)CC3 (configuration not stated)
experimental_system: A549
units_of_measure: µM
val: 66.5
//
molecule: CC(C)(C)C1CCc2c(sc3c2c(-c2ccccc2)nc(=O)n3Cc2cnc(Cl)s2)C1 (configuration not stated)
experimental_system: A549
units_of_measure: µM
val: 31.9
//
molecule: Cc1noc(C)c1Cn1c(=O)nc(-c2ccccc2)c2c3c(sc21)CC(C(C)(C)C)CC3 (configuration not stated)
experimental_system: A549
units_of_measure: µM
val: 29.6
//
molecule: Cc1sc2c(c1C)C(c1ccc(Cl)cc1)=N[C@@H](CC(=O)OC(C)(C)C)c1nnc(C)n1-2
experimental_system: A549
units_of_measure: µM
val: 13.1

## Task Given the molecule Cc1noc(C)c1Cn1c(=O)nc(-c2ccccc2Cl)c2c3c(sc21)CC(C(C)(C)C)CC3 (configuration not stated) , what is its reported IC50?
## Result 16.6

## Task Given the molecule COc1ccc(-c2nc(=O)n(Cc3c(C)noc3C)c3sc4c(c23)CCC(C(C)(C)C)C4)cc1 (configuration not stated) , what is its reported IC50?
## Result 18.9

## Task Given the molecule COc1ccc(-c2nc(=O)n(Cc3cnc(Cl)s3)c3sc4c(c23)CCC(C(C)(C)C)C4)cc1 (configuration not stated) , what is its reported IC50?
## Result 95.1

## Task Given the molecule COc1cc(OC)c2c(=O)[nH]c(-c3cc(C)c(OCCO)c(C)c3)nc2c1 [APABETALONE] , what is its reported IC50?
## Result 53.1

## Task Given the molecule Cc1noc(C)c1Cn1c(=O)nc(-c2ccc(F)cc2)c2c3c(sc21)CC(C(C)(C)C)CC3 (configuration not stated) , what is its reported IC50?
## Result 49.9

## Task Given the molecule COC(=O)c1ccc(-c2nc(=O)n(Cc3c(C)noc3C)c3sc4c(c23)CCC(C(C)(C)C)C4)cc1 (configuration not stated) , what is its reported IC50?
## Result 19.3

## Task Given the molecule Cc1noc(C)c1Cn1c(=O)nc(-c2ccc(Cl)c(Cl)c2)c2c3c(sc21)CC(C(C)(C)C)CC3 (configuration not stated) , what is its reported IC50?
## Result 24.5
